As shown below, each of these compounds has a reported efficacy value.
Test system: HCT116
test details: efficacy (maximum % inhibition of viability vs DMSO); higher = more cytotoxic
experimental context: 72 h; ICRF193 0 nM
Counter-ions that a name gives are not always drawn.
Respond with the bare value in %.

Consider the worked cases shown below.
Problem: Query (compound): COc1ccc2cc3[n+](cc2c1OC)CCc1cc2c(cc1-3)OCO2 ; field requested: efficacy
Result: 50.1

Problem: Query (compound): Cc1c(C(=O)Nc2ccc(N3C[C@@H](C)O[C@@H](C)C3)nc2)cccc1-c1ccc(OC(F)(F)F)cc1 ; field requested: efficacy
Result: 42.7

Problem: Query (compound): CCCSc1ccc2[nH]c(NC(=O)OC)nc2c1 ; field requested: efficacy
Result: 53

Problem: Query (compound): CO[C@H](C(=O)[C@@H](O)[C@@H](C)O)[C@@H]1Cc2cc3cc(O[C@H]4C[C@@H](O[C@@H]5C[C@@H](O)[C@H](O)[C@@H](C)O5)[C@H](O)[C@@H](C)O4)c(C)c(O)c3c(O)c2C(=O)[C@H]1O[C@H]1C[C@@H](O[C@@H]2C[C@@H](O)[C@@H](O[C@@H]3C[C@](C)(O)[C@H](O)[C@@H](C)O3)[C@@H](C)O2)[C@H](O)[C@@H](C)O1 ; field requested: efficacy
Result: 82.3

Problem: Query (compound): O=C(O)C[C@H](O)C[C@H](O)/C=C/c1c(C2CC2)nc2ccccc2c1-c1ccc(F)cc1 ; field requested: efficacy
Result: 100

More entries:
Problem: Query (compound): Cc1cc(Nc2ncc(Cl)c(Nc3ccccc3S(=O)(=O)C(C)C)n2)c(OC(C)C)cc1C1CCNCC1 ; field requested: efficacy
Result: 108

Problem: Query (compound): O=C1CSC2(CCN(CCCN3c4ccccc4Sc4ccc(Cl)cc43)CC2)N1 [Spiclomazine hydrochloride] ; field requested: efficacy
Result: 81.3

Problem: Query (compound): Cc1nnc2n1-c1sc(CCc3ccc(CC(C)C)cc3)cc1C(c1ccccc1Cl)=NC2C (configuration not stated) ; field requested: efficacy
Result: 98.7

Problem: Query (compound): CCOC(=O)C1=C(C)NC(C)=C(C(=O)OCC)C1c1ccccc1/C=C/C(=O)OC(C)(C)C ; field requested: efficacy
Result: 94

Problem: Query (compound): CC(=O)O[C@H]1C(=O)[C@@]2(C)[C@H]([C@H](OC(=O)c3ccccc3)[C@]3(O)C[C@H](OC(=O)[C@H](O)[C@@H](NC(=O)c4ccccc4)c4ccccc4)C(C)=C1C3(C)C)[C@]1(OC(C)=O)CO[C@@H]1C[C@@H]2O ; field requested: efficacy
Result: 71.1

====

Tested on: HCT116
experimental context: 72 h; ICRF193 0 nM
measured attribute: IC50 cell viability

Consider the worked cases shown below.
Problem: Query (compound): CC[C@H](C)C[C@H](C)CCCCCCCCC(=O)N[C@H]1C[C@@H](O)[C@@H](NCCN)NC(=O)[C@@H]2[C@@H](O)CCN2C(=O)[C@H]([C@H](O)CCN)NC(=O)[C@H]([C@H](O)[C@@H](O)c2ccc(O)cc2)NC(=O)[C@@H]2C[C@@H](O)CN2C(=O)[C@H]([C@@H](C)O)NC1=O [Caspofungin Acetate] ; field requested: IC50 cell viability
Result: > 45.8 µM

Problem: Query (compound): O=C(O)CCCc1ccc(N(CCCl)CCCl)cc1 ; field requested: IC50 cell viability
Result: > 45.8 µM

Problem: Query (compound): COc1cc([C@@H]2c3cc4c(cc3[C@@H](O[C@@H]3O[C@@H]5CO[C@@H](C)O[C@H]5[C@H](O)[C@H]3O)[C@H]3COC(=O)[C@H]23)OCO4)cc(OC)c1OP(=O)(O)O [Etoposide Phosphate] ; field requested: IC50 cell viability
Result: 0.517 µM

Problem: Query (compound): Cn1cncc1[C@@](N)(c1ccc(Cl)cc1)c1ccc2c(c1)c(-c1cccc(Cl)c1)cc(=O)n2C ; field requested: IC50 cell viability
Result: 20.6 µM

More entries:
Problem: Query (compound): CCOc1cc(OCC)c(C(=O)CCC(=O)O)cc1OCC [Trepibutone] ; field requested: IC50 cell viability
Result: > 45.8 µM

Problem: Query (compound): CC(C)C(=O)c1c(C(C)C)nn2ccccc12 ; field requested: IC50 cell viability
Result: > 45.8 µM
